Molecular target: SERT (Homo sapiens, UniProt P31645)
Sequence (P31645 whole entry, species assumed): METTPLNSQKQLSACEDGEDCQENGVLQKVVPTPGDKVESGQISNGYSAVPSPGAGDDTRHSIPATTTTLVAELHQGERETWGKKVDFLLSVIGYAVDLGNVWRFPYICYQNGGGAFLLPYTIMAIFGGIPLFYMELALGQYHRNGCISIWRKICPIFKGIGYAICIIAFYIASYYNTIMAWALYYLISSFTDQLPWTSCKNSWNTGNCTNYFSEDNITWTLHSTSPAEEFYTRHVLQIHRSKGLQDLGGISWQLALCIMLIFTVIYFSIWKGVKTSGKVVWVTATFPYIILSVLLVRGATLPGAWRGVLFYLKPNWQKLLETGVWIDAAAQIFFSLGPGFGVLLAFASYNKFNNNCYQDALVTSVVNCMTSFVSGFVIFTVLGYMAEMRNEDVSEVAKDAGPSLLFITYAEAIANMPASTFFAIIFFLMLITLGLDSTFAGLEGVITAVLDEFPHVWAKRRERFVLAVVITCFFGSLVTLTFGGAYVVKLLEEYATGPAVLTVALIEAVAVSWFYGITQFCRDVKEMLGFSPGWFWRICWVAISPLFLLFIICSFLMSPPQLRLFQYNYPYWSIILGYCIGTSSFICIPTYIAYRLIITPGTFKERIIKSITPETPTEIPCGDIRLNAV
Test: biochemical
Type: binding
Details: read-out: Ki (nM) or maximum inhibition
property_measured: Ki

GET /values?readout=Ki&item= O=C1CN2c3c(cccc3[C@@H]3CN(CCCOc4ccc(F)cc4)CC[C@@H]32)N1 [Compound A, reference compound]
≤ 600 nM
